Reported values of normalized growth for individual entries
- Protocol details: chemical genetic growth profiling, strain panel (AID 1159580);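 also: tested at 20 µM; growth read once vehicle control cultures reached saturation at 30 °C; 1 = growth at the plate median or of vehicle wells; lower values mean less growth of the strain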
- Protocol conditions: S. cerevisiae deletion strains, growth OD, locus YNL128W, strain TEP1, hits give low values
Out of some 5,500 compounds screened, about 2,000 (36%) were called active. Inconclusive results (about 18%) are left out. The list shows a part of the results.
Reported metric: normalized growth

[[record]]
molecule = "CC1(C)CC[C@@]2(C(=O)O)C(C1)C1=CCC3[C@@]4(C)CC[C@H](O)C(C)(C)C4CC[C@@]3(C)[C@]1(C)C[C@@H]2O (stereo partly drawn)"
test_result = 0.874

[[record]]
molecule = "Cc1c(S(=O)(=O)c2ccc(Cl)cc2)cnc2cc(C(C)(C)C)nn12"
test_result = 1.01

[[record]]
molecule = "C[C@@H]1OC(O[C@H]2[C@H](OC(=O)[C@]34CCC(C)(C)CC3C3=CCC5[C@@]6(C)CC[C@H](OC7O[C@@H](C)[C@H](O[C@@H]8OC[C@@H](O)[C@H](O)[C@H]8O)[C@@H](O)[C@H]7O)C(C)(C)C6CC[C@@]5(C)[C@]3(C)CC4O)OC[C@H](O)[C@H]2O)[C@H](O)[C@H](O)[C@H]1O[C@@H]1O[C@H](CO)[C@@H](O)[C@H](O)[C@H]1O (stereo partly drawn)"
test_result = 0.887


====

- Protocol details: chemical genetic growth profiling, strain panel (AID 1159580)
- Protocol conditions: S. cerevisiae deletion strains, growth OD, locus YLR403W, strain SFP1, hits give low values
Hit rate of the full screen: of about 5,500 compounds, about 2,000 (36%) were called active. About 18% were inconclusive and are not listed. The list shows a part of the results.
Reported metric: normalized growth

[[record]]
record_smiles = "O=[N+]([O-])c1cnc(Sc2nnc(SCc3cccc(C(F)(F)F)c3)s2)s1"
reported_metric = "normalized growth"
test_result = -0.00531

[[record]]
record_smiles = "C=CCc1c(CCC)nc(-c2ccccn2)[nH]c1=O"
reported_metric = "normalized growth"
test_result = 0.892

[[record]]
record_smiles = "CCCc1nc(-c2ccccn2)[nH]c(=O)c1CC1CC1"
reported_metric = "normalized growth"
test_result = 0.94

[[record]]
record_smiles = "O=C(NCCNc1ncc(Cl)cc1C(F)(F)F)C(F)(F)Sc1ccccc1"
reported_metric = "normalized growth"
test_result = 0.998

[[record]]
record_smiles = "O=C(N/N=C\\c1cc(Br)ccc1O)c1ccccc1Oc1ccccc1"
reported_metric = "normalized growth"
test_result = 0.927

[[record]]
record_smiles = "O=C(NCCNc1ncc(C(F)(F)F)cc1Cl)C(F)(F)Sc1ccccc1"
reported_metric = "normalized growth"
test_result = 0.922

[[record]]
record_smiles = "N#Cc1c2ccccc2nc2ccccc12"
reported_metric = "normalized growth"
test_result = 0.605

[[record]]
record_smiles = "Fc1ccc(NC(=S)N2CCCN(Cc3ccc(Cl)cc3Cl)CC2)cc1"
reported_metric = "normalized growth"
test_result = 1.01

[[record]]
record_smiles = "Cc1nc(-c2ccccn2)[nH]c(=O)c1Cc1c(Cl)cccc1Cl"
reported_metric = "normalized growth"
test_result = 0.858

[[record]]
record_smiles = "Nc1ccccc1C(=O)N/N=C\\c1cc(Br)ccc1O"
reported_metric = "normalized growth"
test_result = 0.88

[[record]]
record_smiles = "O=C(Nc1ccccc1Sc1ccc([N+](=O)[O-])cc1[N+](=O)[O-])C(Cl)(Cl)Cl"
reported_metric = "normalized growth"
test_result = 0.873


====

- Protocol details: chemical genetic growth profiling, strain panel (AID 1159580);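 also: tested at 20 µM; growth read once vehicle control cultures reached saturation at 30 °C; 1 = growth at the plate median or of vehicle wells; lower values mean less growth of the strain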
- Protocol conditions: S. cerevisiae deletion strains, growth OD, locus YMR125W, strain sto1
The campaign covered roughly 5,500 compounds. About 2,000 (36%) were called active. Another 18% or so got no clear call; they are omitted. No stated cut-off is given here; in the data, active means normalized growth mostly below about 0.91 (no sharp cut-off); inconclusive means no clear call, values can overlap the other calls; inactive means mostly above about 0.92. This is one part of the list.
Classes used: 1 = active, 0 = inactive

[[record]]
molecule = "OC(CCN1CCCCC1)(c1ccccc1)C1CC2C=CC1C2 (stereo not given)"
category = 0

[[record]]
molecule = "Cc1ccc(N=CN(C)C=Nc2ccc(C)cc2C)c(C)c1"
category = 0

[[record]]
molecule = "CCCCCCCCCCCCCCC(C(=O)O)C(O)(CC(=O)OC)C(=O)O (stereo not given)"
category = 0

[[record]]
molecule = "CC(C)=CCCC1(C)C=Cc2c(O)c3c(c(CC=C(C)C)c2O1)OC12C(=CC4CC1C(C)(C)OC2(C/C=C(/C)C(=O)O)C4=O)C3=O (stereo not given)"
category = 0

[[record]]
molecule = "O=C(O)CC(O)(CC(=O)O)C(=O)O"
category = 0

[[record]]
molecule = "O=c1[nH]cc(F)c(=O)[nH]1"
category = 1

[[record]]
molecule = "COC(=O)C[C@H]1C(C)(C)C2(O)OC34CC2C(=O)[C@]1(C)C3CC[C@]1(C)C4=CC(=O)O[C@H]1c1ccoc1 (stereo not given in full)"
category = 0

[[record]]
molecule = "COc1cc(N)c(Cl)cc1C(=O)NC1CCN(Cc2ccccc2)CC1"
category = 0

[[record]]
molecule = "CC(C)=CCCC1(C)C=Cc2c(O)c3c(c(CC=C(C)C)c2O1)OC12C(=CCCC1C(C)(C)O[C@@]2(C/C=C(\\C)C(=O)O)C(=O)O)C3=O (stereo not given in full)"
category = 1

[[record]]
molecule = "COc1cc(C(=O)NCCCCCC(=O)O)cc(OC)c1OC"
category = 0


====

- Protocol details: chemical genetic growth profiling, strain panel (AID 1159580);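 also: tested at 20 µM; growth read once vehicle control cultures reached saturation at 30 °C; 1 = growth at the plate median or of vehicle wells; lower values mean less growth of the strain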
- Protocol conditions: S. cerevisiae deletion strains, growth OD, locus YAL021C, strain ccr4, hits give low values
The whole screen tested about 5,500 compounds, of which about 2,000 (36%) were called active. Another 18% or so got no clear call; they are omitted. The list shows a part of the results.
Reported metric: normalized growth

[[record]]
compound = "COc1cc(C(=O)NCCCCCC(=O)O)cc(OC)c1OC"
reported_metric = "normalized growth"
test_result = 0.976

[[record]]
compound = "C[C@@H]1C(=O)O[C@H]2[C@H]1CC[C@@]1(C)C=CC(=O)[C@@]3(C)O[C@@]213"
reported_metric = "normalized growth"
test_result = 1.01

[[record]]
compound = "CC1(C)CC[C@]2(C)CC[C@]3(C)C(=CCC4[C@@]5(C)CC[C@H](O)C(C)(C)C5CC[C@]43C)C2C1 (stereo partly drawn)"
reported_metric = "normalized growth"
test_result = 0.992

[[record]]
compound = "COC1=C[C@@H]2[C@@H]3Cc4ccc(OC)c(O)c4[C@]2(CCN3C)CC1=O"
reported_metric = "normalized growth"
test_result = 1.01

[[record]]
compound = "CC1(C)CC[C@]2(C(=O)O)CC[C@]3(C)C(=CCC4[C@@]5(C)CC[C@@H](O)C(C)(C)C5CC[C@]43C)C2C1 (stereo partly drawn)"
reported_metric = "normalized growth"
test_result = 1.02

[[record]]
compound = "COc1cc(N)c(Cl)cc1C(=O)NC1CCN(Cc2ccccc2)CC1"
reported_metric = "normalized growth"
test_result = 1

[[record]]
compound = "C[C@@H]1OC(O[C@H]2C(O[C@H]3CC[C@@]4(C)C(CC[C@]5(C)C4CC=C4C6CC(C)(C)CC[C@]6(C(=O)O)CC[C@]45C)[C@]3(C)CO)OC[C@H](O)[C@@H]2O)[C@H](O)[C@H](O)[C@H]1O (stereo partly drawn)"
reported_metric = "normalized growth"
test_result = 0.0607

[[record]]
compound = "C#C[C@]1(OC(C)=O)CCC2C3CCC4=C/C(=N\\O)CCC4C3CC[C@@]21CC (stereo partly drawn)"
reported_metric = "normalized growth"
test_result = 0.823


====

- Protocol details: chemical genetic growth profiling, strain panel (AID 1159580);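 also: tested at 20 µM; growth read once vehicle control cultures reached saturation at 30 °C; 1 = growth at the plate median or of vehicle wells; lower values mean less growth of the strain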
- Protocol conditions: S. cerevisiae deletion strains, growth OD, locus YDL074C, strain BRE1
Hit rate of the full screen: of about 5,500 compounds, about 2,000 (36%) were called active. Not shown: some 18% with an inconclusive outcome. No stated cut-off is given here; in the data, active means normalized growth mostly below about 0.91 (no sharp cut-off); inconclusive means no clear call, values can overlap the other calls; inactive means mostly above about 0.92. The list shows a part of the results.
Classes used: active, inactive

[[record]]
compound = "CC(=O)O[C@H]1CC[C@@]2(C)C(CC[C@]3(C)C2CC=C2C4CC(C)(C)CC[C@]4(C)CC[C@]23C)C1(C)C (stereo not given in full)"
category = "inactive"

[[record]]
compound = "N#CC(O[C@@H]1O[C@H](CO[C@@H]2O[C@H](CO)[C@@H](O)[C@H](O)[C@H]2O)[C@@H](O)[C@H](O)[C@H]1O)c1ccccc1 (stereo not given in full)"
category = "inactive"

[[record]]
compound = "CC1(C)CC[C@@]2(C(=O)O)C(C1)C1=CCC3[C@@]4(C)CC[C@H](O)C(C)(C)C4CC[C@@]3(C)[C@]1(C)C[C@@H]2O (stereo not given in full)"
category = "inactive"

[[record]]
compound = "O=C1c2c(O)cccc2Cc2cccc(O)c21"
category = "inactive"

[[record]]
compound = "C=C/C(C)=C\\CC1C(C)(O)CCC2C(C)(C)CCCC21C (stereo not given)"
category = "active"

[[record]]
compound = "CC(=O)O[C@H]1CC[C@@]2(C)C(CC[C@]3(C)C2C(=O)C=C2C4[C@@H](C)[C@H](C)CC[C@]4(C(=O)O)CC[C@]23C)C1(C)C (stereo not given in full)"
category = "inactive"

[[record]]
compound = "Nc1ccc(S(=O)(=O)Nc2cnc3ccccc3n2)cc1"
category = "inactive"

[[record]]
compound = "OC(CCN1CCCCC1)(c1ccccc1)C1CCCCC1 (stereo not given)"
category = "inactive"

[[record]]
compound = "CC(=O)O[C@@H]1CC[C@@]2(C)C(CC[C@]3(C)C2CC=C2C4CC(C)(C)CC[C@]4(C(=O)O)CC[C@]23C)C1(C)C (stereo not given in full)"
category = "inactive"

[[record]]
compound = "CC(C)(Oc1ccc(CCNC(=O)c2ccc(Cl)cc2)cc1)C(=O)O"
category = "inactive"

[[record]]
compound = "C/C=C(/C)C(=O)O[C@H]1CC[C@@]2(C)[C@@H]3CC[C@H]4[C@]5(O)C[C@H](O)[C@@]6(O)[C@@H](CN7C[C@@H](C)CC[C@H]7[C@@]6(C)O)[C@]5(O)C[C@@]42O[C@]13O"
category = "inactive"

[[record]]
compound = "Clc1ccccc1C(c1ccccc1)(c1ccccc1)n1ccnc1"
category = "active"

[[record]]
compound = "C#C[C@]1(OC(C)=O)CCC2C3CCC4=CC(=O)CC[C@@H]4C3CC[C@@]21C (stereo not given in full)"
category = "inactive"

[[record]]
compound = "Nc1ccc(S(=O)(=O)c2ccc(N)cc2)cc1"
category = "inactive"

[[record]]
compound = "CC(=O)Nc1ccc(OCC(O)CNC(C)C)cc1 (stereo not given)"
category = "inactive"

[[record]]
compound = "NC12CC3CC(CC(C3)C1)C2"
category = "inactive"

[[record]]
compound = "C/C=C(/C)C(=O)OC1CCC2(C)C3CCC4C5(O)CC(O)C6(O)C(CN7CC(C)CCC7C6(C)O)C5(O)CC42OC13O (stereo not given)"
category = "inactive"

[[record]]
compound = "N=C(N)c1ccc(OCCCCCOc2ccc(C(=N)N)cc2)cc1"
category = "inactive"

[[record]]
compound = "COc1cc(C(=O)O[C@H]2CC[C@@]3(C)[C@@H]4CC[C@H]5[C@]6(O)C[C@H](O)[C@@]7(O)[C@@H](CN8C[C@@H](C)CC[C@H]8[C@@]7(C)O)[C@]6(O)C[C@@]53O[C@]24O)cc(OC)c1OC"
category = "inactive"

[[record]]
compound = "NNC(=O)c1ccncc1"
category = "inactive"

[[record]]
compound = "C[C@@H]1CC[C@]2(C(=O)O)CC[C@]3(C)C(=CCC4[C@@]5(C)CC[C@H](O)C(C)(C)C5CC[C@]43C)C2[C@H]1C (stereo not given in full)"
category = "inactive"

[[record]]
compound = "CC(=O)OC1CC[C@@]2(C)C(CC[C@]3(C)C2CCC2C4CC(C)(C)CCC4(C(=O)O)CC[C@]23C)C1(C)C (stereo not given in full)"
category = "inactive"

[[record]]
compound = "Cc1cc(O)cc(O)c1C(=O)O"
category = "inactive"

[[record]]
compound = "CC(=O)NCc1c(I)c(NC(C)=O)c(I)c(C(=O)O)c1I"
category = "inactive"

[[record]]
compound = "Nc1ccccc1C(=O)CC(N)C(=O)O (stereo not given)"
category = "inactive"

[[record]]
compound = "CC1(C)CC[C@]2(C(=O)O)CC[C@]3(C)C(=CCC4[C@@]5(C)CC[C@H](O)[C@@](C)(CO)C5CC[C@]43C)C2C1 (stereo not given in full)"
category = "inactive"

[[record]]
compound = "CCCOc1ccccc1-c1nc2n[nH]nc2c(=O)[nH]1"
category = "inactive"

[[record]]
compound = "CC(=O)/C=C\\[C@@H]1[C@@]2(C)CCCC(C)(C)C2CC[C@@]1(C)O (stereo not given in full)"
category = "inactive"

[[record]]
compound = "Cc1cc(O)c2c(c1)Cc1cccc(O)c1C2=O"
category = "inactive"

[[record]]
compound = "C/C=C(/C)C(=O)O[C@@H]1[C@H](OC(C)=O)[C@@]2(CO)C(CC1(C)C)C1=CCC3[C@@]4(C)CC[C@H](O[C@@H]5O[C@H](C(=O)O)[C@@H](O[C@@H]6O[C@H](CO)[C@@H](O)[C@H](O)[C@H]6O)[C@H](O)[C@H]5O[C@@H]5O[C@H](CO)[C@@H](O)[C@H](O)[C@H]5O)[C@](C)(CO)C4CC[C@@]3(C)[C@]1(C)C[C@H]2O (stereo not given in full)"
category = "inactive"

[[record]]
compound = "OC(CCN1CCCC1)(c1ccccc1)C1CCCCC1 (stereo not given)"
category = "inactive"

[[record]]
compound = "Cc1cc(O)ccc1Cl"
category = "inactive"

[[record]]
compound = "C[C@@H]1OC(O[C@H]2C(O[C@H]3CC[C@@]4(C)C(CC[C@]5(C)C4CC=C4C6CC(C)(C)CC[C@]6(C(=O)O)CC[C@]45C)[C@]3(C)CO)OC[C@H](O)[C@@H]2O)[C@H](O)[C@H](O)[C@H]1O (stereo not given in full)"
category = "active"

[[record]]
compound = "CCCCCCCCCCCC[C@H](C(=O)O)[C@@H](C)C(=O)O"
category = "inactive"

[[record]]
compound = "CNC(=O)O/N=C\\C(C)(C)SC"
category = "inactive"

